tgt: biotinylated eboIZN39IQ
test_description: SPR (ProteOn XPR36), eboC24 flowed over biotin-eboIZN39IQ, pH 5.8
recorded_endpoint: Kd (nM)
Write the value in nM as a bare number.

The binder listed as IEPHDWTKNITDKIDQIIHDFVDK (modifications not checked) [eboC24] shows Kd equal to 300

Numbers sourced from patent US20170247418A1.
